This collection of values is drawn from a protein production outcome set (Wang et al. 2014).

Assay: label from the status in PepcDB records
MEASURE: protein production

GSHMLGGKGRPSGVGGYRILVTTSRRPSPRIRSFVKDLSATIPGAFRFTRGHYSMEELAREAIIRGADRIVVVGERRGNPGIIRVYAVEGPERPDNIVSFIVKGVSLSRERRWGLPSLRGGEVLVARPLDSGVAVEFADAFVIAFHARLKPPEAAGYVEAVIESLDARTVAVTFRYGGAPVGPMLRLGKPAEMVKRGRRV    not failed
MMDLHTHTVYSDGIGLIRDNVAWAEKRGLKIVGISDHIHFFTPSRFSAYINEINVIKEESEIVVLAGIEANILENGPDITDEFRKKLDYAIASVHEWFGRNGTHEYINYVKKAIMDDNVDIIGHFGNSFPWIGYPTREEIDEILDLAEAYGKAFEISARYKVPDLEFIRECVKRGIKLSLATDAHRPEDVGKVSWSLKMLEKAGGTKEDLIFSEYL    failed
MSEHPKKVVLLDLDGTLTKSDPGIIGCVVKAFEEMGYPVPDDAELHRFIGPAISESMQRNGIPDDKLDEGVRIYRKYYADEAVFDDPNNPGQKVPGRLNNTIYQGIPEQLAKLRADGYYLAIASCKPQYQCIPICEHFHLDTMVDGIYGASEDNSRLDKDQVIRWAFQHIDFDENAGDKALMVGDRWTDADGAKACGLDCLGCGWGYAEPGELKAHGAYRILDSVDELAQAVEEYFA    not failed
MPLCLRNAQQDDTQRLSQIARQTFALACPPDTPATEIEAFIQENLLPEHFSALLEAPGKQLRVLLDDNRVIGYSLVNLHPQDLGVAGADGIAELTRCYLDAAHHGSGAAQFLLAQTLAQQPGPLRLTVNEHNARAIRFYQRNGFVRVGETLFPCGADLHRDWVMLRR    failed
